assay: Hematology assays in cynomolgus monkeys (Example 45); type: in vivo; conditions: day −14; escalating dose regimen
Readings of WBC count for the listed substances

Substance | WBC count
ISIS 416858: MOE gapmer, nucleobases 1275 to 1318 of SEQ ID NO: 1 (Table 8) (antisense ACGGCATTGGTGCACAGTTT; MOE gapmer, wing and gap sizes not given here) | 14000 µL⁻¹
ISIS 416850: MOE gapmer, nucleobases 1275 to 1318 of SEQ ID NO: 1 (Table 8) (antisense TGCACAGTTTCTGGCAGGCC; MOE gapmer, wing and gap sizes not given here) | 13000 µL⁻¹
ISIS 416838: MOE gapmer, nucleobases 1018 to 1042 of SEQ ID NO: 1 (Table 6) (antisense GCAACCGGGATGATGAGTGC; MOE gapmer, wing and gap sizes not given here) | 12000 µL⁻¹
ISIS 416864: MOE gapmer, nucleobases 1275 to 1318 of SEQ ID NO: 1 (Table 8) (antisense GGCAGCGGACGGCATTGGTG; MOE gapmer, wing and gap sizes not given here) | 13000 µL⁻¹
ISIS 417002: MOE gapmer, nucleobases 1275 to 1318 of SEQ ID NO: 1 (Table 8) (antisense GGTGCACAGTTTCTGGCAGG; MOE gapmer, wing and gap sizes not given here) | 13000 µL⁻¹
